Origin of measurements: PubChem BioAssay AID588498

subject.of.test: Luciferin 4-monooxygenase (Photinus pyralis)
method.summary: firefly luciferase inhibitors or activators, profiling panel, counter-screen for EBNA-1 inhibitor project, biochemical, qHTS, purified enzyme, Km substrates, luminescence (AID 588498)
condition.set: purified FLuc
The source made the active and inactive calls.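 The calls were made as follows: active = compounds that block purified firefly luciferase enzyme with half-maximal potency below 20 µM; inactive = the rest.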
Give your call using only these classes: active, inactive

Take a look at these entries with their results.
Nc1c(C(=O)Nc2ccc3c(c2)OCCO3)nnn1Cc1cccc(C(F)(F)F)c1 ... active
Cc1ccc(-n2nnnc2SCC(=O)c2cc(C)n(CC3CCCO3)c2C)cc1 (centres undefined) ... active

Field: outcome | Entry: CS(=O)(=O)c1ccc2nc(NC(=O)c3cccc(F)c3)sc2c1
active

What did the test return for Nc1c(C(=O)Nc2ccc3c(c2)OCCO3)nnn1Cc1cccc(Cl)c1 ?
active

Write down the call the test reported for this molecule. Item: Nc1c(C(=O)Nc2cccc(C(F)(F)F)c2)nnn1Cc1cccc(Cl)c1
inactive

Recorded call for Cc1cccc(-n2nnnc2SCC(=O)c2cc(C)n(CC3CCCO3)c2C)c1 (centres undefined) ?
active

Which outcome did this test record for the molecule Cc1cccc(C(=O)Nc2nc3ccc(S(C)(=O)=O)cc3s2)c1 ?
active

Dear all, I need the recorded test outcome for Cc1ccc(C(=O)Nc2nc3ccc(S(C)(=O)=O)cc3s2)cc1 , thank you.
active

Fill in: this test's call for CS(=O)(=O)c1ccc2nc(NC(=O)c3ccccc3Cl)sc2c1 is ___
active

Could you please tell me the result logged for Cc1ccc(C(=O)Nc2nc3ccc(S(C)(=O)=O)cc3s2)cc1C in this assay?
active

How did this test come out for Cc1cc(C(=O)CSc2nnnn2-c2ccccc2)c(C)n1CC1CCCO1 (centres undefined) ?
active

Each molecule tested received a call. Report the one for COCCn1c(C)cc(C(=O)CSc2nnnn2-c2ccccc2)c1C .
active

###

subject.of.test: UniProt P08659
Sequence (P08659 whole entry, looked up): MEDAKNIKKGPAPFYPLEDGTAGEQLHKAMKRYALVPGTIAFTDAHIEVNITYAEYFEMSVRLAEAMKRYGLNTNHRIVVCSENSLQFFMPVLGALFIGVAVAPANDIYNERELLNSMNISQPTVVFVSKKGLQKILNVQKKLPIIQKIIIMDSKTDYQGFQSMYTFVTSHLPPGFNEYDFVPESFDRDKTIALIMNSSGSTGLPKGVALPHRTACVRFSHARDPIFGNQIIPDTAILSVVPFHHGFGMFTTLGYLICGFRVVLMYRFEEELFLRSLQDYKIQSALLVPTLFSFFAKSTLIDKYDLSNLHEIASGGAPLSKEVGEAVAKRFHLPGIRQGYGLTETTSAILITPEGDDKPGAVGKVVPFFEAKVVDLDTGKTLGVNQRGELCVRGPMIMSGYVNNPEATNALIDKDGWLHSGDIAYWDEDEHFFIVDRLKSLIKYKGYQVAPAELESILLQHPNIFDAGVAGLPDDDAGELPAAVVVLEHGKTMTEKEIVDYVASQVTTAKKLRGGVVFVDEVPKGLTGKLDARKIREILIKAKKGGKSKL
method.summary: firefly luciferase inhibitors or activators, profiling panel, counter-screen for EBNA-1 inhibitor project, biochemical, qHTS, purified enzyme, Km substrates, luminescence (AID 588498)
condition.set: purified FLuc
The source made the active and inactive calls.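 The calls were made as follows: active = compounds that block purified firefly luciferase enzyme with half-maximal potency below 20 µM; inactive = the rest.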
# output must be one of True = active, False = inactive

For orientation, consider the following solved cases.
COc1cccc(Cn2nnc(C(=O)Nc3ccc4c(c3)OCCO4)c2N)c1 ... True
Cc1ccccc1NC(=O)c1nnn(Cc2cccc(Cl)c2)c1N ... False
COc1ccc(C(=O)Nc2nc3ccc(S(C)(=O)=O)cc3s2)cc1 ... True
COc1ccc2nc(NC(=O)c3ccc(C)c(C)c3)sc2c1 ... True
COc1ccc(Cn2nnc(C(=O)Nc3ccc4c(c3)OCCO4)c2N)cc1 ... True
Cc1ccccc1C(=O)Nc1nc2ccc(S(C)(=O)=O)cc2s1 ... True

Field: outcome | Entry: Cc1ccccc1-n1nnnc1SCC(=O)c1cc(C)n(CC2CCCO2)c1C (configuration not stated)
True
